Let's look at some molecules and their measured inhibition of growth at 100 µg/mL.
Tested on: MCF7
ASSAY TEXT: Antiproliferative activity against human MCF7 cells assessed as growth inhibition at 100 ug/mL incubated for 48 hrs by SRB assay relative to control
Assay type: functional
ASSAY CONDITIONS: read-out: GI

>  <COMPOUND SMILES>
COc1cccc(/C=N/NC(=O)c2nnn(-c3ccc(Br)cc3)c2C)c1OC

>  <TARGET OR SYSTEM>
MCF7

>  <UNITS OF MEASURE>
%

>  <inhibition of growth at 100 µg/mL>
60

$$$$
>  <COMPOUND SMILES>
COc1cc(/C=N/NC(=O)c2nnn(-c3ccc(Br)cc3)c2C)cc(OC)c1OC

>  <TARGET OR SYSTEM>
MCF7

>  <UNITS OF MEASURE>
%

>  <inhibition of growth at 100 µg/mL>
72

$$$$
>  <COMPOUND SMILES>
COc1cc(/C=N/NC(=O)c2nnn(-c3ccc(F)cc3)c2C)cc(OC)c1OC

>  <TARGET OR SYSTEM>
MCF7

>  <UNITS OF MEASURE>
%

>  <inhibition of growth at 100 µg/mL>
68

$$$$
>  <COMPOUND SMILES>
Cc1c(C(=O)N/N=C/c2ccccc2)nnn1-c1ccc(Br)cc1

>  <TARGET OR SYSTEM>
MCF7

>  <UNITS OF MEASURE>
%

>  <inhibition of growth at 100 µg/mL>
87

$$$$
>  <COMPOUND SMILES>
COc1cccc(/C=N/NC(=O)c2nnn(-c3ccc([N+](=O)[O-])cc3)c2C)c1OC

>  <TARGET OR SYSTEM>
MCF7

>  <UNITS OF MEASURE>
%

>  <inhibition of growth at 100 µg/mL>
63

$$$$
>  <COMPOUND SMILES>
COc1cccc(/C=N/NC(=O)c2nnn(-c3ccc(F)cc3)c2C)c1OC

>  <TARGET OR SYSTEM>
MCF7

>  <UNITS OF MEASURE>
%

>  <inhibition of growth at 100 µg/mL>
78

$$$$
>  <COMPOUND SMILES>
COc1cc(/C=N/NC(=O)c2nnn(-c3ccc([N+](=O)[O-])cc3)c2C)cc(OC)c1OC

>  <TARGET OR SYSTEM>
MCF7

>  <UNITS OF MEASURE>
%

>  <inhibition of growth at 100 µg/mL>
49

$$$$
>  <COMPOUND SMILES>
COc1cccc(/C=N/NC(=O)c2nnn(-c3ccc(Cl)cc3)c2C)c1OC

>  <TARGET OR SYSTEM>
MCF7

>  <UNITS OF MEASURE>
%

>  <inhibition of growth at 100 µg/mL>
70

$$$$
